test system: Escherichia coli TOP10; assay: shrunken log2 fold change of peptide-encoding DNA abundance (4.5 h post-induction vs induction); higher = less antimicrobial activity (less host growth inhibition); details: time post-induction: 4.5 h; library: site-saturation at positions 5, 18, 19, 20;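 further: peptides expressed intracellularly from a pBAD plasmid library in pooled LB shake-flask culture, induced with 0.3% L-arabinose, DNA abundance read by NGS, three biological replicates, DESeq2 with apeglm shrinkage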
Entry flag: Fulfilled if shrunken log2 fold change reaches 0.01; Not fulfilled if it does not.

Ask: Test whether the sequence `RRIRMRPPRLPRPRPRPFGYPRP` records shrunken log2 fold change of 0.01 or higher.
Result: Fulfilled

Ask: Test whether the sequence `RRIRQRPPRLPRPRPRPIHYPRP` records shrunken log2 fold change of 0.01 or higher.
Result: Fulfilled

Ask: Test whether the sequence `RRIRCRPPRLPRPRPRPISSPRP` records shrunken log2 fold change of 0.01 or higher.
Result: Not fulfilled

Ask: Test whether the sequence `RRIRYRPPRLPRPRPRPTIQPRP` records shrunken log2 fold change of 0.01 or higher.
Result: Not fulfilled

Ask: Test whether the sequence `RRIRVRPPRLPRPRPRPCTVPRP` records shrunken log2 fold change of 0.01 or higher.
Result: Not fulfilled

Ask: Test whether the sequence `RRIRVRPPRLPRPRPRPMPCPRP` records shrunken log2 fold change of 0.01 or higher.
Result: Fulfilled

Ask: Test whether the sequence `RRIRRRPPRLPRPRPRPAKWPRP` records shrunken log2 fold change of 0.01 or higher.
Result: Fulfilled

Ask: Test whether the sequence `RRIRGRPPRLPRPRPRPCEDPRP` records shrunken log2 fold change of 0.01 or higher.
Result: Fulfilled
